Reference for the values: patent US20240343803A1

# Target system: T1, human PVRIG-his (AcroBiosystems, Cat NO. PVG-H52H4) (human, UniProt Q6DKI7 41-171, limits assumed)
# T1 construct: also called human PVRIG protein
# T1 sequence (looked up): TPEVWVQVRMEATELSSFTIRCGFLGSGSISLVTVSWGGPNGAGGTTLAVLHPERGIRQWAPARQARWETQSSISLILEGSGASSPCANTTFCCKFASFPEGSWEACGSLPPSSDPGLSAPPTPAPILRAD
# Assay info: competition ELISA, PVRIG-His coated, competitor human PVRL2-mFc
# Method: The ELISA plate was pre-coated with 100 μL/well of 0.5 μg/mL human PVRIG-his protein (AcroBiosystems, Cat NO. PVG-H52H4). The tested anti-PVRIG antibodies were diluted from the highest concentration of 16 nM (two-fold concentration). […] After adding a termination solution to terminate the reaction, the absorbance value was read by a microplate reader (MD i3×). […] The IC50 value was calculated by using a Four Parameter Logistic Fit (GraphPadPrism9). […]
Outcome measure: % relative activity (IC50) parental antibody/test antibody (%)
Answer with a number only, understood to be in %.

>  <Binder>
PVRIG-A50-H1d (Fc fusion, humanized variant of PVRIG-A50; also called A50.VH1d; not shown: constant part not restated for the humanized forms; parents are VHH-hinge-CH2-CH3 of human IgG1; detected by anti-human) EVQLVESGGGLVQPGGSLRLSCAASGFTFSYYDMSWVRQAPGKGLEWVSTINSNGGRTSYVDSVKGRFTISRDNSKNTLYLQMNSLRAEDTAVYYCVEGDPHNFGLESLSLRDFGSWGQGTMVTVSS

>  <Value unit>
%

>  <Measured result>
75

$$$$

Would you kindly look at the next entry?
Please look at this binder and report its % relative activity (IC50) parental antibody/test antibody: PVRIG-A50-H1a (Fc fusion, humanized variant of PVRIG-A50; also called A50.VH1a; not shown: constant part not restated for the humanized forms; parents are VHH-hinge-CH2-CH3 of human IgG1; detected by anti-human) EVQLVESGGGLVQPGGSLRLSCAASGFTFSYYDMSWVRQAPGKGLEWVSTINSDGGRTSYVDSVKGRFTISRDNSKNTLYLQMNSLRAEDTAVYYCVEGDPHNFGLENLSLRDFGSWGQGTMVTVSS 73
